Catalogue of cell count values
- Experiment notes: beta-catenin nuclear localization change in HeLa – imaging, HeLa cells, immunofluorescence, high-content, primary screen (AID 1665)
- Measurement conditions: at 5 µM; HeLa beta-catenin nuclear translocation, measured here: cell count, cytotoxicity flag
Screen size: about 190,000 compounds; about 590 (0.31%) were called active. The full list was thinned out, with actives kept by preference.
Please reply with the bare figure in cells and do not write the unit itself.

As a guide, the following entries are already answered.
1) Cc1cc(-c2n[nH]c(=S)n2/N=C/c2ccco2)n[nH]1	1280
2) Cc1cc(C(=O)NNS(=O)(=O)c2ccccc2C(F)(F)F)nn1C(C)(C)C	1120
3) Cc1cccc(N=C2NC(=O)/C(=C/c3cn(C)c4ccccc34)S2)c1	1040
4) Cc1ccc(N=C2NC(=O)/C(=C/C=C/c3ccco3)S2)cc1C	321
5) Cc1ccc(/C=N/NC(=O)COc2ccccc2-c2ccccc2)cc1	162
6) CSc1ccc(/C=N\NC(=O)COc2ccc(Cl)cc2Br)cc1	812
7) O=C(COC(=O)c1cc(S(=O)(=O)N2CCCCC2)ccc1Cl)NCc1ccco1	1080
8) Cc1ccc(N2NC(=O)/C(=C/C=C/c3ccco3)C2=O)cc1C	1100
9) Cc1nn(CC(=O)N/N=C/c2ccc(F)cc2)c(C)c1[N+](=O)[O-]	1290
10) COc1cc2c(cc1OC)C(/C=C/c1ccco1)=NCC2	1310

Task: Suppose we examine the molecule "CN(c1ccccc1)S(=O)(=O)c1ccc(Cl)c(C(=O)OCC(=O)NCc2ccco2)c1" ; what cell count value has been reported?
Result: 1260

* * *

- Experiment notes: beta-catenin nuclear localization change in HeLa – imaging, HeLa cells, immunofluorescence, high-content, primary screen (AID 1665)
- Measurement conditions: at 5 µM; HeLa beta-catenin nuclear translocation, measured here: cell count, cytotoxicity flag
The whole screen tested about 190,000 compounds, of which about 590 (0.31%) were called active. Shown is part of a subset that was picked to be rich in actives.
Reported cell count is given for each of the following molecules.
// return numeric value only (unit: cells, not printed)

1. O=C(NN1C(=O)C2CCCCC2C1=O)c1ccco1 (stereo not drawn)	1260
2. COc1ccc(C(=O)CN2C(=O)NC(C)(c3ccc(C)cc3)C2=O)cc1OC (stereo not drawn)	931
3. COc1ccc(C(CC(=O)N2CCN(c3ccccc3)CC2)c2c(O)cc(OC)cc2OC)cc1 (stereo not drawn)	1050

Task: cell count for "CCCC(=O)n1nc(-c2ccccc2)nc1N" ?
Result: 1050

Task: Need cell count, item COc1cc(/C=C(\C#N)c2nc3c(s2)CC(C)CC3)ccc1O (stereo not drawn)
Result: 1440

Task: # query: cell count of entry "C=CCNC(=S)N1CCc2[nH]c3ccccc3c2C1"
Result: 1340

Task: Form field: reported cell count of "Cc1ccc2c(C)c(C(=O)N3CCC(N4CCC(C(=O)NC5CC5)CC4)CC3)oc2c1"
Result: 1360

Task: So what does the record say about cell count for CC(C)Cc1ccc(C(C)C(=N)N)cc1 (stereo not drawn) ?
Result: 1310

* * *

- Experiment notes: beta-catenin nuclear localization change in HeLa – imaging, HeLa cells, immunofluorescence, high-content, primary screen (AID 1665)
- Measurement conditions: at 5 µM; HeLa beta-catenin nuclear translocation, measured here: cell count, cytotoxicity flag
The whole screen tested about 190,000 compounds, of which about 590 (0.31%) were called active. Only a selection was taken, and actives are over-represented in it overall.
Recorded endpoint: cell count (cells)
Write the value in cells as a bare number.

Look over these answered cases.
1) Cc1ccc(C)c2[nH]c(=O)c(CN(Cc3cccnc3)C(=S)NCc3ccco3)cc12	1320
2) COC(=O)c1cc(N2CCNCC2)nc2ccccc12	1220
3) Oc1ccc2ccccc2c1C=Nc1ccccc1	1230
4) Cc1ccc(F)cc1NC(=O)N1CCCN(c2ccc(C(F)(F)F)cn2)CC1	1280
5) CCOc1cccc(C(=O)Nc2cccnc2)c1	1110
6) Cc1ccc(C(=O)N/C(=C\c2ccco2)C(=O)NC2CCS(=O)(=O)C2)cc1 (centres undefined)	1360
7) Nc1nnnn1/N=C/c1cc([N+](=O)[O-])ccc1O	1250
8) Oc1ccc(N=Cc2c(O)ccc3ccccc23)cc1	1240

Task: Item "Nc1nc(SC23CC4CC(CC(C4)C2)C3)ns1" has what recorded cell count?
Result: 1340

Task: Given "COC(OC)c1ccnc(SCc2ccccc2Cl)n1" , state its recorded cell count.
Result: 1270

Task: Value lookup for cell count; key = "O=C(N/N=C/c1cccc2cccnc12)[C@H]1C[C@@H]1c1ccccc1"
Result: 1300

Task: Would you mind telling me what cell count value was observed for "CCOC(=O)Cc1cc(=O)[nH]c(/N=C(\N)Nc2ccc(OC)cc2)n1" ?
Result: 1300

* * *

- Experiment notes: beta-catenin nuclear localization change in HeLa – imaging, HeLa cells, immunofluorescence, high-content, primary screen (AID 1665)
- Measurement conditions: at 5 µM
Hit rate of the full screen: of about 190,000 compounds, about 590 (0.31%) were called active.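 The calls were made as follows: active = nuclear translocation activity above 50% at 5 µM, with a well cell count of 50 or more; inconclusive = wells under 50 cells across six images, flagged as toxic; inactive = the rest.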 Shown is part of a subset that was picked to be rich in actives.
Form entry, call: pick from true (active), false (inactive)

Recorded results for 5 molecules are shown here.
1. COc1ccc(C(=O)n2nc(-c3ccc(C)cc3)nc2N)cc1OC	true
2. O=C(NN1C(=O)C2CCCCC2C1=O)c1ccco1 (stereo not given)	false
3. CCN(CC)CCCN=Cc1c(O)n(-c2ccc(C)cc2)c(=O)c2ccccc12	false
4. Nc1nnn(CC(=O)N/N=C/c2ccc(O)cc2)n1	false
5. O=C(NC1CCCCC1)c1cc(C2CC2)on1	false

Task: Please state the recorded outcome for this molecule: COc1ccc(C(=O)CN2C(=O)NC(C)(c3ccc(C)cc3)C2=O)cc1OC (stereo not given)
Result: false

Task: Test call for this molecule, please: "Nc1c(N(CCO)C(=O)C2CCCCC2)c(=O)[nH]c(=O)n1Cc1ccccc1"
Result: false

Task: # outcome recorded in this test, key = "Cc1nn2c(NCCN(C)C)c3c(nc2c1-c1ccccc1)CCC3"
Result: false

Task: I would be grateful if you could indicate the recorded call for CC[C@]1(O)CC2CN(CCc3c([nH]c4ccccc34)[C@@](C(=O)OC)(c3cc4c(cc3OC)N(C=O)[C@H]3[C@@](O)(C(=O)OC)[C@H](OC(C)=O)[C@]5(CC)C=CCN6CC[C@]43[C@@H]65)C2)C1 (stereo not given in full) .
Result: true

Task: Please indicate how the test categorized "CCCC(=O)Nc1ccc2c(c1)nc(CCNC(=O)c1ccco1)n2C" .
Result: false

* * *

nuclear translocation activity by entry:
- Experiment notes: beta-catenin nuclear localization change in HeLa – imaging, HeLa cells, immunofluorescence, high-content, primary screen (AID 1665);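 on nuclear translocation activity: per-cell ratio of nuclear to cytoplasmic median beta-catenin stain intensity; plate controls were DMSO negative control for no effect and GSK-3 inhibitor IX positive control for full effect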
- Measurement conditions: at 5 µM; stronger effect = higher value
Hit rate of the full screen: of about 190,000 compounds, about 590 (0.31%) were called active. This excerpt belongs to a sample that is enriched for actives.
# number only, unit % dropped from output

Guide cases for nuclear translocation activity, answers given:
1. O=C(O)C1CCN(C(=O)c2cc(F)cc3c2OCOC3)CC1	-2.6
2. Cc1cc(N/N=C\c2ccc(Br)cc2)nc(-n2nc(C)cc2C)n1	-1.3
3. O=[N+]([O-])c1ccc2nc(-c3ccccn3)[nH]c2c1	-0.1

Task: Given the molecule "O=[N+]([O-])/C=C1\CCCCCN1" , what is its reported nuclear translocation activity?
Result: 0

Task: // returns reported nuclear translocation activity for input "COc1ccccc1/C=N\Nc1cc(C)nc(-n2nc(C)cc2C)n1"
Result: 0.7

Task: Form field: reported nuclear translocation activity of CC12C(=O)N(c3ccccc3)C(=O)C1C(c1ccccc1)N1CCCN12 (configuration not stated)
Result: -5.7

Task: Field request: nuclear translocation activity | item: "N/C(=N\OC(=O)CCn1cccc(C(F)(F)F)c1=O)c1ccc(OC(F)(F)F)cc1"
Result: -1.4

Task: Request the reported nuclear translocation activity associated with "CC(C)(C)NC(=O)/C(=C/c1cccnc1)NC(=O)c1ccco1"
Result: -0.7

Task: Could you share which nuclear translocation activity value was measured for "Oc1ccc2ccccc2c1C=Nc1ccccc1" ?
Result: 1.3

Task: Sample "COCCNC(=S)N1CCN(C)CC1" — what was its nuclear translocation activity?
Result: -0.3

Task: Endpoint output: nuclear translocation activity of "COC(OC)c1ccnc(SCc2ccccc2Cl)n1" . Value?
Result: -2.6

Task: Any idea what nuclear translocation activity was measured for O=C(NNC(=S)NC1CC2CCC1C2)c1ccc(Cl)cc1 (configuration not stated) ?
Result: -1.4

* * *

- Experiment notes: beta-catenin nuclear localization change in HeLa – imaging, HeLa cells, immunofluorescence, high-content, primary screen (AID 1665);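 on nuclear translocation activity: per-cell ratio of nuclear to cytoplasmic median beta-catenin stain intensity; plate controls were DMSO negative control for no effect and GSK-3 inhibitor IX positive control for full effect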
- Measurement conditions: at 5 µM; stronger effect = higher value
In all, about 190,000 compounds went through this assay and about 590 (0.31%) were called active. The full list was thinned out, with actives kept by preference.
Recorded endpoint: nuclear translocation activity (%)
Give the value, in units of %, as a plain number.

Here are 5 molecules together with their reported answers.
1) COc1ccc(CNC(=O)C2CC(c3ccc(C(F)(F)F)cc3)=NO2)cc1 (stereo not drawn)	2.2
2) CC(/C=C/C1(O)C(C)CC(=O)CC1(C)C)OC1OC(CO)C(O)C(O)C1O (stereo not drawn)	-3
3) CCOc1cccc(-n2nnnc2-c2ccc(OC)cc2)c1	63.9
4) CCOC(=O)c1cc(NC(=O)c2cccnc2)cc(C(=O)OCC)c1	0.3
5) COc1ccc(C2=NOC(C(=O)NCc3ccco3)C2)cc1OC (stereo not drawn)	166

Task: // lookup nuclear translocation activity for "COc1ccc(-c2cc(C(=O)NCc3ccco3)no2)cc1OC"
Result: -1.7

Task: Record request: nuclear translocation activity value, item "O=C(NNC(=S)Nc1ccc(F)cc1)[C@H]1C[C@@H]1c1ccccc1"
Result: -0.2

Task: Fill in the blank: the reported nuclear translocation activity of "O=C(N/N=C/c1cccc([N+](=O)[O-])c1)c1ccncc1" is ____.
Result: -0.3

Task: Which nuclear translocation activity reading was recorded for the molecule "Cc1nnc2n1N=C(c1ccc3c(c1)NC(=O)CO3)CS2" ?
Result: -0.7

Task: Suppose we examine the molecule "Cc1cccc(N=C2NC(=O)/C(=C/c3cn(C)c4ccccc34)S2)c1" ; what nuclear translocation activity value has been reported?
Result: 0.7

Task: Param item = CC1=NNC(=O)C1CCC(=O)N/N=C(\C)c1ccc(Cl)cc1 (stereo not drawn) ; retrieve measured nuclear translocation activity.
Result: 0.6

Task: Requested field: nuclear translocation activity. Item: "Cc1noc(C)c1C(=O)OCC(=O)N1CCN(S(=O)(=O)c2ccc3ccccc3c2)CC1"
Result: 0.1
